# credit: PubChem BioAssay (NCI)

tested on: SNB-19 CNS; test: NCI tumour cell line growth inhibition, 48 h
value type: TGI

O=C1c2ccccc2C(=O)c2cc(N=Nc3c(O)ccc4ccccc34)ccc21    > 100 µM
CCCCCCCCCCCCCCCCCC1=NC(C)(C)CN1CC(C)O (stereo not drawn)    31.5 µM
O=C(Nc1cc(C(F)(F)F)ccc1Cl)c1ccc(NC2=C(Cl)C(=O)N(Cc3ccccc3)C2=O)cc1    > 100 µM
Clc1ccc(C2=NN=C3C(c4ccccc4)=Nc4ccccc4N3C2)cc1    > 100 µM
C=CCNc1nc2c(s1)C(=O)c1ccccc1C2=O    19.2 µM
O=C(OC1C2OC(=O)c3cc(O)c(O)c(O)c3Oc3cc4c(c(O)c3O)-c3c(cc(O)c(O)c3O)C(=O)OCC3OC(O)C(OC(=O)c5cc(O)c(O)c(O)c5Oc5cc6c(c(O)c5O)-c5c(cc(O)c(O)c5O)C(=O)OC1C(COC6=O)OC2O)C(OC(=O)c1cc(O)c(O)c(O)c1)C3OC4=O)c1cc(O)c(O)c(O)c1 (stereo not drawn)    51.6 µM
NC(N)=NC(N)=Nc1ccc(S(=O)(=O)O)cc1    > 100 µM
O=C(CCC(=O)Nc1ccc(Cl)c(Cl)c1)CC(=O)c1ccc(Br)cc1    > 100 µM
